- procedure-summary: soluble fraction after stress (log2 fold change); higher = more stays soluble; pooled small domains, quantitative proteomics
- measurement-setup: stress: 50 degC
Measured soluble fraction (log2) of individual entries
Output: the number by itself.

1. HMGERMELTLDNPREAIPVLDAMGFANYQVVDKEHIHIFERLNESALVNMELAKAGIPVKGISITSE 0.018
2. HMHKPLRILVYEELRMLIMTGQIKPGTRMMEIDLAESMGVSRTPVREAIRQLEKDNLVTIEPRRGAYVSD -2.45

Asked: Any idea what its soluble fraction (log2) is? The sequence is HMFLTPLEETRLAIEEVVIAKNIAIDLFPRESAIRKQQHELIYHYHLKGLTVGTEKNKRLRIFPRGY
Given back: -0.000251

Asked: So what's the measured soluble fraction (log2) for this one? HMTFGENLIRLRRQQGLSQEQLGMRIGVSRQTVSKWELNDTTPEMEKLIALADLFGLSLDELTGRV
Given back: -0.115

Asked: Could you share which soluble fraction (log2) value was measured for HMQLDLNENEKIIFEILQNNKTMQLSNLKTQTELSNKGWDKAIKSLTKQGLAKVSKIDNELIVEFL ?
Given back: -0.249

Asked: I am curious: what soluble fraction (log2) value has been reported for HMNGPTPEEKLAVVNAEFVRQYGDEYEELELEGEELEEYYQKALNKEDFEYDIPHLPGWDEP ?
Given back: 0.0217

Asked: # lookup: soluble fraction (log2) of HMAVQEDAGLAREDLPPEVQGLLQEREAARAAKDWGKSDALRRQLQDLGYAIKDTAQGMEIKRT
Given back: 0.425

Asked: Look up soluble fraction (log2) for this sequence: HMKESRLFRILYYLLQHKKATAPELAEEFEVSVRTIYRDIDYISSAGVPIYATQGKDGGIAILDSF
Given back: -0.65

Asked: Please look up its soluble fraction (log2): HMSSLEQVYPNPVSSILKLNSFIKNYKILNATGHEVLKGSGNTINVGKLPSGSYFLITSENYSIKFIK
Given back: -1.24

Asked: Item HMRGPPQVLVDVELEDGRVGQIGVRNGDDATELAETFVRAFRLEQSFVGRLANVIQGKIRELLHSQ has what recorded soluble fraction (log2)?
Given back: -0.889

Asked: I would be grateful if you could share the reported soluble fraction (log2) for HMGKEWPTPDNVEEWKKLVKKARLWPIQADQAQSEETRERNRKKWELFVAYAKRFGYRAGIGETGKPFVNN .
Given back: -0.443

Asked: // query soluble fraction (log2) value for entry HMEVPFRNAAIFKTRSGDYAIRASYDGVDLGIKPIEKSTARTYFQLTDVKDKESFLNMTARNQYESEIAGI
Given back: -0.00166

Asked: Query: soluble fraction (log2); subject: HMSTTDGIERFLASGAVKGIGRTMAARIVEHFGSRTLTVMESEPERLTEVAGIGRKKAESIAASYAELS
Given back: -0.156

Asked: Name the reported soluble fraction (log2) value associated with the sequence HMIMVAGHLQIKKGKYYMVLELKSESGERKTKWISTGLSAKGNKRKAEAMLEEARENYQSTDA
Given back: -0.899

Asked: # soluble fraction (log2) lookup, item HMGSIGAMLSSPELYGKLATNPATRGFLSQPDFIAMLTDVQKNPDKFGSYMSDPRMMQVLSVALG
Given back: 0.118

Asked: Dear colleague, I am looking for the recorded soluble fraction (log2) of the following sequence: HMDDISLEEIKYISSKLETKVNEIEELLVRYYDGETNEAEEKELKEFFAQADVPAHLLAEKRLFMQLASQ
Given back: -0.0772

Asked: Give the measured soluble fraction (log2) of HMQINLKQSSDEELVKIITVQVHHYEPHTVKAAEAEIERRGIDKMRMAHLVKKVAQENTAVQEIQD .
Given back: 0.18

Asked: Fill in: soluble fraction (log2) of HMLEEIDYPEEQLQLLFAWSRDHVQSTPPGLPVVDDHVWHILVRGYGATDQRTEAFALLASYAGFP is ___
Given back: -0.0919
